TARGET UNDER TEST: endothelial lipase (EL) (Homo sapiens)
Construct: EL is released as secretory protein in high concentration into cell culture medium (conditioned medium) by recombinant cell lines (CHO, HEK293); made in house; host or cells: recombinant cell lines (CHO, HEK293); concentrated conditioned medium used as enzyme solution
ASSAY INFO: EL inhibition assay (EL activity assay, fluorescent Bodipy phospholipid substrate)
Assay type: biochemical
CONDITION PARAMETERS: EL from conditioned medium of recombinant cell lines (CHO, HEK293); 37° C., 90 minutes; HPTLC fluorescence read-out
PARAMETER MEASURED: log10(IC50) (log10 of the value in µM)
A difference of one corresponds to tenfold IC50; all values are log10 with IC50 in µM.

Any idea what log10(IC50) was measured for CCCCCCNC(=O)n1oc2ncccc2c1=O [Example 6] ?
-1.37

Any idea what log10(IC50) was measured for Cc1cc(Cl)nc2c1c(=O)n(C(=O)NC1CCCc3ccccc31)n2C (centres unmarked) [Example 12] ?
-1.54

Any idea what log10(IC50) was measured for Cc1ccccc1CNC(=O)n1c(=O)c2c(C)cc(Cl)nc2n1C [Example 2] ?
-1.70

Any idea what log10(IC50) was measured for Cc1cc(Cl)nc2c1c(=O)n(C(=O)NCCc1cccs1)n2C [Example 4] ?
-1.72

Any idea what log10(IC50) was measured for CCCCn1c2nc(Cl)cc(C)c2c(=O)n1C(=O)NCCc1cccs1 [Example 11] ?
0.09

Any idea what log10(IC50) was measured for Cc1cc(Cl)nc2[nH]n(C(=O)NC3CCCc4ccccc43)c(=O)c12 (centres unmarked) [Example 9] ?
0.08

Any idea what log10(IC50) was measured for CCCCCCNC(=O)n1oc2nc(C(F)(F)F)ccc2c1=O [Example 16] ?
-2.00

Any idea what log10(IC50) was measured for CCCCCCNC(=O)n1c(=O)c2c(C)cc(Cl)nc2n1Cc1ccccc1 [Example 15] ?
-1.24

---

Could you please report measured IC50 for the items listed next?
TARGET UNDER TEST: endothelial lipase (EL) (Homo sapiens, UniProt Q9Y5X9)
Construct: EL is released as secretory protein in high concentration into cell culture medium (conditioned medium) by recombinant cell lines (CHO, HEK293); made in house; host or cells: recombinant cell lines (CHO, HEK293); concentrated conditioned medium used as enzyme solution
Sequence (Q9Y5X9 21-500): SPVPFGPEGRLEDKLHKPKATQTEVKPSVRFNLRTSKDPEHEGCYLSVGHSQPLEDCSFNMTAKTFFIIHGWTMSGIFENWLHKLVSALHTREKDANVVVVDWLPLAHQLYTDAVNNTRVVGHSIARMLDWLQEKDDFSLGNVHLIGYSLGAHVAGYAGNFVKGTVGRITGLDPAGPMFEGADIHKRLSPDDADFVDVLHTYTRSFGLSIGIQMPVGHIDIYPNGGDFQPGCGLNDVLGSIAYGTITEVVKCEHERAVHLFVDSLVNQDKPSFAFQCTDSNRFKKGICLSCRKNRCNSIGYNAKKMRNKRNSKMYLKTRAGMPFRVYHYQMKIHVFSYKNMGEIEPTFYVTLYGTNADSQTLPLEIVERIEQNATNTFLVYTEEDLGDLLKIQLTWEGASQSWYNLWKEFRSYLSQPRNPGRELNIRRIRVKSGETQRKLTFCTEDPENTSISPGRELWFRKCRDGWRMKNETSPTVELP
ASSAY INFO: EL inhibition assay (EL activity assay, fluorescent Bodipy phospholipid substrate)
Type: biochemical
CONDITION PARAMETERS: EL from conditioned medium of recombinant cell lines (CHO, HEK293); 37° C., 90 minutes; HPTLC fluorescence read-out
# unit: µM | format: bare number

Any idea what IC50 was measured for `Cc1cc(Cl)nc2[nH]n(C(=O)N[C@@H]3CCc4ccccc43)c(=O)c12` ?
0.091

Any idea what IC50 was measured for `CCCCCCNC(=O)n1c(=O)c2c(C)cc(Cl)nc2n1CCCC` ?
0.001

Any idea what IC50 was measured for `Cc1cc(Cl)nc2c1c(=O)n(C(=O)N[C@@H]1CCc3ccccc31)n2C` ?
0.008

Any idea what IC50 was measured for `Cc1cc(Cl)nc2c1c(=O)n(C(=O)N[C@H]1CCc3ccccc31)n2C` ?
0.204

Any idea what IC50 was measured for `CCCCCCNC(=O)n1oc2nc(C)ccc2c1=O` ?
0.011
